src = patent US9657057B2

# tgt: MECL1 (Homo sapiens, UniProt P40306+P49720)
# experimentSummary: ProCISE proteasome subunit assay, MECL1
# Format: biochemical
# assaySetup: MOLT-4 lysate, 1 hour at 25° C.
assayReadout: IC50

Ask | Name the reported IC50 value associated with the compound COc1ccc(C[C@H](NC(=O)c2cccc(=O)[nH]2)C(=O)N[C@@H](Cc2ccccc2)C(=O)[C@@]2(C)CO2)cc1
Reply | > 250 µM

###

# tgt: i20S (20S immunoproteasome) (Homo sapiens, UniProt P20618+P28062)
# experimentSummary: 20S proteasome assay, chymotrypsin-like activity (LLVY), i20S
# Type: biochemical
# assaySetup: LLVY i20S Hu 1 h CONT: IC50 (nM), succinyl-Leu-Leu-Val-Tyr-AMC
assayReadout: IC50 (nM)
Form entry: value (nM) — number only.

1. COCOCCC(=O)N[C@@H](C)C(=O)N[C@@H](Cc1ccc(OC)cc1)C(=O)N[C@@H](Cc1ccccc1)C(=O)[C@@]1(C)CO1 ... 40.2

Ask | Quick one: IC50 for COc1ccc(C[C@H](NC(=O)[C@@H](C)NC(=O)C2=CCCC2)C(=O)N[C@@H](CC2CCCC2)C(=O)[C@@]2(C)CO2)cc1 ?
Reply | 891

Ask | Record request: IC50 value, item COc1ccc(C[C@H](NC(=O)[C@H](C)NC(=O)c2cc(C)no2)C(=O)N[C@@H](CC2CCCC2)C(=O)[C@@]2(C)CO2)cc1
Reply | 23.5

Ask | Please give the measured IC50 for this molecule: COc1ccc(C[C@H](NC(=O)[C@H](C)NC(=O)CC(C)(C)O)C(=O)N[C@@H](CC2CCCC2)C(=O)[C@@]2(C)CO2)cc1
Reply | 470

Ask | Would you kindly share the measured IC50 for COc1ccc(C[C@H](NC(=O)[C@@H](C)NC(=O)c2ncc[nH]2)C(=O)N[C@@H](CC2CCCC2)C(=O)[C@@]2(C)CO2)cc1 ?
Reply | 19500

Ask | May I ask what IC50 has been recorded for COc1ccc(C[C@H](NC(=O)[C@@H](C)NC(=O)c2cnc(C)s2)C(=O)N[C@@H](CC2CCCC2)C(=O)[C@@]2(C)CO2)cc1 ?
Reply | 64.6

Ask | Dear colleague, I am looking for the recorded IC50 of the following molecule: COc1ccc(C[C@H](NC(=O)[C@@H](NC(=O)OCc2ccccc2)C2(O)CC2)C(=O)N[C@@H](Cc2ccccc2)C(=O)[C@@]2(C)CO2)cc1
Reply | 5.2

Ask | Consider the molecule shown here: COc1ccc(C[C@H](NC(=O)[C@@H](C)NC(=O)c2nc3ccccc3[nH]2)C(=O)N[C@@H](CC2CCCC2)C(=O)[C@@]2(C)CO2)cc1 What is its recorded IC50?
Reply | 2580

Ask | Entry under review: COc1ccc(C[C@H](NC(=O)[C@@H](CO)NC(=O)c2cc(C)no2)C(=O)N[C@@H](CC2CCCC2)C(=O)[C@@]2(C)CO2)cc1 . Reported IC50?
Reply | 71.7

Ask | Recorded IC50 of COc1ccc(C[C@H](NC(=O)[C@@H](C)NC(=O)CC(C)(O)C(F)(F)F)C(=O)N[C@@H](CC2CCCC2)C(=O)[C@@]2(C)CO2)cc1 (stereo partly drawn) , please.
Reply | 55

Ask | Form field: reported IC50 of COc1ccc(C[C@H](NC(=O)[C@@H](C)NC(=O)c2oncc2C)C(=O)N[C@@H](CC2CCCC2)C(=O)[C@@]2(C)CO2)cc1
Reply | 2270

Ask | For the molecule COc1ccc(C[C@H](NC(=O)CNC(=O)C2=C(C)c3ccccc3C2)C(=O)N[C@@H](CC2CCCC2)C(=O)[C@@]2(C)CO2)cc1 , what IC50 is on record?
Reply | 2520
